# TARGET_OR_TEST_SYSTEM: Full length EN PA (influenza PA endonuclease) (Influenza A virus)

{"MOLECULE": "CCC#Cc1ccn([C@H](c2ccccc2)[C@@H]2CN(C)C(=O)c3c(O)c(=O)cnn32)n1", "IC50": "0.25 to 1 µM"}
{"MOLECULE": "CCN1C[C@@H](C(c2cccc(C)c2)c2cccc(C)c2)n2ncc(=O)c(O)c2C1=O", "IC50": "≥ 1 µM"}
{"MOLECULE": "CC(C)CC(=O)Oc1c2n(ncc1=O)[C@@H](C(c1ccccc1)c1ccccc1)CN(C(C)C)C2=O", "IC50": "0.25 to 1 µM"}
{"MOLECULE": "C#Cc1ccn([C@H](c2ccccc2)[C@H]2CN(C)C(=O)c3c(O)c(=O)cnn32)n1", "IC50": "< 0.25 µM"}
{"MOLECULE": "CC#Cc1ccn(C(c2ccccc2)C2CN(C)C(=O)c3c(O)c(=O)cnn32)n1 (stereo not shown)", "IC50": "< 0.25 µM"}
{"MOLECULE": "CC(C)N1C[C@@H](C(c2ccccc2)c2cccc(Cl)c2)n2ncc(=O)c(O)c2C1=O (single isomer, unassigned) [Compound 82-B]", "IC50": "0.25 to 1 µM"}
{"MOLECULE": "CN1CC(C(c2ccccc2)c2cccc(Cl)c2)n2ncc(=O)c(O)c2C1=O (stereo not shown)", "IC50": "< 0.25 µM"}

====

# TARGET_OR_TEST_SYSTEM: Full length EN PA (influenza PA endonuclease) (Influenza A virus)
# METHOD_NOTES: EN PA FRET inhibition assay
# Format: biochemical
# CONDITION_NOTES: FRET probe, mean of a minimum of two independent experiments, read-out: Potency (IC50 class, Table 3)
pIC50: −log10 of the molar value.
PARAMETER_MEASURED: pIC50

{"COMPOUND": "CN1C[C@H](C2c3cccc(F)c3CCc3c(F)cccc32)n2ncc(=O)c(O)c2C1=O", "TARGET_OR_TEST_SYSTEM": "Full length EN PA (influenza PA endonuclease) (Influenza A virus)", "MEASURED": "> 6.60"}
{"COMPOUND": "CCN1C[C@H](C(c2ccccc2)c2cccc(Cl)c2)n2ncc(=O)c(O)c2C1=O (stereo partly drawn)", "TARGET_OR_TEST_SYSTEM": "Full length EN PA (influenza PA endonuclease) (Influenza A virus)", "MEASURED": "> 6.60"}
{"COMPOUND": "CC(C)N1C[C@@H]([C@@H](c2ccccc2)n2ccc(C#N)n2)n2ncc(=O)c(O)c2C1=O", "TARGET_OR_TEST_SYSTEM": "Full length EN PA (influenza PA endonuclease) (Influenza A virus)", "MEASURED": "6.00 to 6.60"}

====

# TARGET_OR_TEST_SYSTEM: UniProt:P15659
pIC50: −log10 of the molar value.
PARAMETER_MEASURED: pIC50

{"MOLECULE": "CC(C)N1CC(C(c2cccc(F)c2)c2cccc(F)c2)n2ncc(=O)c(O)c2C1=O (stereo not shown)", "PARAMETER_MEASURED": "pIC50", "MEASURED": "> 6.60"}
{"MOLECULE": "CN1CC(C2c3cc(Cl)ccc3CCc3ccc(Cl)cc32)n2ncc(=O)c(O)c2C1=O (stereo not shown)", "PARAMETER_MEASURED": "pIC50", "MEASURED": "> 6.60"}
{"MOLECULE": "C#Cc1ccn([C@@H](c2ccccc2)[C@H]2CN(C)C(=O)c3c(O)c(=O)cnn32)n1", "PARAMETER_MEASURED": "pIC50", "MEASURED": "> 6.60"}
{"MOLECULE": "O=C1c2c(O)c(=O)cnn2[C@H](C2c3ccccc3CCc3ccccc32)CN1Cc1ccccc1", "PARAMETER_MEASURED": "pIC50", "MEASURED": "6.00 to 6.60"}
